Listed here are compounds together with their documented LD50 (open)^24h.
Test system: D. rerio embryos
Test Description: D. rerio embryotoxicity assay, direct application of ring-open photoform
Assay type: in vivo, Danio rerio
Measurement Setup: direct application of 1 or ring-open photoform; zebrafish embryos at 3 dpf; 24 h incubation; final DMSO 0.2%; ambient light; value ± STD
Starred links: 1 amine or outer side, 2 acyl side, 3 side chain; linkers in the order of their positions; H or OH if unused. Positions of bridges follow the written chain, without caps; N, C: chain ends. Non-standard residues stand in square brackets, D forms with d. Residues, ends and D or L forms follow the SMILES beside them. X2 = Cc1sc(C(=O)[C@@H]2CCCN2[*:2])cc1C1=C(c2cc(C(=O)[*:1])sc2C)CCC1; Orn = NCCC[C@H](N)C(=O)O
Give the value; after it, write the unit.

Cc1sc2cc1C1=C(CCC1)c1cc(sc1C)C(=O)[C@@H]1CCCN1C(=O)[C@H](C)NC(=O)[C@H](CCCN)NC(=O)[C@H](C(C)C)NC(=O)[C@@H]1CCCN1C(=O)[C@@H](Cc1ccccc1)NC(=O)[C@H](CC(C)C)NC(=O)[C@H](CCCN)NC(=O)[C@H](C(C)C)NC2=O [Peptide 3]    4.7 ± 0.1 µg/mL
CC[C@H](C)[C@@H]1NC(=O)c2cc(c(C)s2)C2=C(CCC2)c2cc(sc2C)C(=O)[C@@H]2CCCN2C(=O)[C@H](CC(C)C)NC(=O)[C@H](CCCN)NC(=O)[C@H]([C@@H](C)CC)NC(=O)[C@@H]2CCCN2C(=O)[C@H]2CCCN2C(=O)[C@H](CC(C)C)NC(=O)[C@H](CCCN)NC1=O [Peptide 9] (I[Orn]L[dP]PI[Orn]L; linker N-C via X2)    1.6 ± 0.3 µg/mL

Attention now turns to another entry.
Lab note: compound Cc1sc2cc1C1=C(CCC1)c1cc(sc1C)C(=O)[C@@H]1CCCN1C(=O)[C@H](C(C)C)NC(=O)[C@H](CCCN)NC(=O)[C@H](C(C)C)NC(=O)[C@@H]1CCCN1C(=O)[C@@H](Cc1ccccc1)NC(=O)[C@H](C(C)C)NC(=O)[C@H](CCCN)NC(=O)[C@H]([C@@H](C)O)NC2=O [Peptide 6] (T[Orn]V[dF]PV[Orn]V; linker N-C via X2) tested on D. rerio embryos; recorded LD50 (open)^24h was 8.6 ± 0.0 µg/mL

----------
System: D. rerio embryos
Test Description: D. rerio embryotoxicity "photoactivation" assay (ring-closed photoform in darkness, then in situ photoconversion)
Type: in vivo, Danio rerio
Measurement Setup: phototherapeutic safety window; ring-closed 24 h LD50 (dark) divided by ring-open 24 h LD50 (direct application)
Starred links: 1 amine or outer side, 2 acyl side, 3 side chain; linkers in the order of their positions; H or OH if unused. Positions of bridges follow the written chain, without caps; N, C: chain ends. Non-standard residues stand in square brackets, D forms with d. Residues, ends and D or L forms follow the SMILES beside them. *: point of attachment. X2 = Cc1sc(C(=O)[C@@H]2CCCN2[*:2])cc1C1=C(c2cc(C(=O)[*:1])sc2C)CCC1; Leu(3R-OH) = CC(C)[C@@H](O)[C@H](N)C(=O)O; X1 = CCCCN([C@@H](CC(C)C)C(=O)[*:2])[*:1]; NMeL = CN[C@@H](CC(C)C)C(=O)O; Orn = NCCC[C@H](N)C(=O)O; NHiPr = CC(C)N*
Listed here are molecules together with their documented LD50(closed)^24h/LD50(open)^24h ratio.

Answered cases to consult:
Cc1sc2cc1C1=C(CCC1)c1cc(sc1C)C(=O)[C@@H]1CCCN1C(=O)[C@H]([C@H](O)C(C)C)NC(=O)[C@H](CCCN)NC(=O)[C@H](C(C)C)NC(=O)[C@@H]1CCCN1C(=O)[C@@H](Cc1ccccc1)NC(=O)[C@H](C(C)C)NC(=O)[C@H](CCCN)NC(=O)[C@H](C(C)C)NC2=O [Peptide 14]    25.2
CCCCN1C(=O)[C@@H](Cc2ccccc2)NC(=O)[C@H](CC(C)C)NC(=O)[C@H](CCCN)NC(=O)[C@H]([C@@H](C)CC)NC(=O)c2cc(c(C)s2)C2=C(CCC2)c2cc(sc2C)C(=O)[C@@H]2CCCN2C(=O)[C@H](CC(C)C)NC(=O)[C@H](CCCN)NC(=O)[C@H]([C@@H](C)CC)NC(=O)[C@@H]1CC(C)C [Peptide 11] (I[Orn]L[dF][X1]I[Orn]L; linker N-C via X2)    2.8
Cc1sc2cc1C1=C(CCC1)c1cc(sc1C)C(=O)[C@@H]1CCCN1C(=O)[C@H](C(C)C)NC(=O)[C@H](CCCN)NC(=O)[C@H](C(C)C)NC(=O)[C@@H]1CCCN1C(=O)[C@@H](Cc1ccccc1)NC(=O)[C@H](C(C)C)NC(=O)[C@H](CCCN)NC(=O)[C@H]([C@@H](C)O)NC2=O [Peptide 6] (T[Orn]V[dF]PV[Orn]V; linker N-C via X2)    22.9
Cc1sc2cc1C1=C(CCC1)c1cc(sc1C)C(=O)[C@@H]1CCCN1C(=O)[C@H](CC(C)C)NC(=O)[C@H](CCCN)NC(=O)[C@H](C(C)C)NC(=O)[C@@H]1CCCN1C(=O)[C@@H](Cc1ccccc1)NC(=O)[C@H](CC(C)C)NC(=O)[C@H](CCCN)NC(=O)[C@H](CCCN)NC2=O [Peptide 5]    2.5
CC[C@H](C)[C@@H]1NC(=O)c2cc(c(C)s2)C2=C(CCC2)c2cc(sc2C)C(=O)[C@@H]2CCCN2C(=O)[C@H](CC(C)C)NC(=O)[C@H](CCCN)NC(=O)[C@H]([C@@H](C)CC)NC(=O)[C@@H]2CCCN2C(=O)[C@H]2CCCN2C(=O)[C@H](CC(C)C)NC(=O)[C@H](CCCN)NC1=O [Peptide 9] (I[Orn]L[dP]PI[Orn]L; linker N-C via X2)    5.7

Lab note: molecule Cc1sc2cc1C1=C(CCC1)c1cc(sc1C)C(=O)[C@@H]1CCCN1C(=O)[C@H](C(C)C)NC(=O)[C@H](CCCN)NC(=O)[C@H](C(C)C)NC(=O)[C@@H]1CCCN1C(=O)[C@@H](Cc1ccccc1)NC(=O)[C@H](C(C)C)NC(=O)[C@H](CCCN)NC(=O)[C@H]([C@H](O)C(C)C)NC2=O [Peptide 12] ([Leu(3R-OH)][Orn]V[dF]PV[Orn]V; linker N-C via X2) tested on D. rerio embryos; recorded LD50(closed)^24h/LD50(open)^24h ratio was 21.4

Lab note: molecule CC[C@H](C)[C@@H]1NC(=O)c2cc(c(C)s2)C2=C(CCC2)c2cc(sc2C)C(=O)[C@@H]2CCCN2C(=O)[C@H]([C@@H](C)CC)NC(=O)[C@H](CCCN)NC(=O)[C@H](CC(C)C)NC(=O)[C@H](CC(C)C)N(C)C(=O)[C@@H](Cc2ccccc2)NC(=O)[C@H]([C@@H](C)CC)NC(=O)[C@H](CCCN)NC1=O [Peptide 10] (I[Orn]I[dF][NMeL]L[Orn]I; linker N-C via X2) tested on D. rerio embryos; recorded LD50(closed)^24h/LD50(open)^24h ratio was 9.5

Lab note: molecule Cc1sc2cc1C1=C(CCC1)c1cc(sc1C)C(=O)[C@@H]1CCCN1C(=O)[C@H](C(C)C)NC(=O)[C@H](CCCN)NC(=O)[C@H](C(C)C)NC(=O)[C@@H]1CCCN1C(=O)[C@@H](Cc1ccccc1)NC(=O)[C@H](C(C)C)NC(=O)[C@H](CCCN)NC(=O)[C@H](CC(=O)NC(C)C)NC2=O [Peptide 7] (D(NHiPr)[Orn]V[dF]PV[Orn]V; linker N-C via X2) tested on D. rerio embryos; recorded LD50(closed)^24h/LD50(open)^24h ratio was 45.9

Lab note: molecule Cc1sc2cc1C1=C(CCC1)c1cc(sc1C)C(=O)[C@@H]1CCCN1C(=O)[C@H](C(C)C)NC(=O)[C@H](CCCCN)NC(=O)[C@H](C(C)C)NC(=O)[C@@H](CCCCN)NC(=O)[C@H](CC(C)C)NC(=O)[C@@H]1CCCN1C(=O)[C@@H](Cc1ccccc1)NC(=O)[C@H](C(C)C)NC(=O)[C@H](CCCCN)NC(=O)[C@H](CC(C)C)NC(=O)[C@H](CCCCN)NC(=O)[C@H](C(C)C)NC2=O [Peptide 17] (VKLKV[dF]PL[dK]VKV; linker N-C via X2) tested on D. rerio embryos; recorded LD50(closed)^24h/LD50(open)^24h ratio was 3.1

----------
Listed here are compounds together with their documented LD50 (open)^3h.
Tested on: D. rerio embryos
Test Description: D. rerio embryotoxicity assay, direct application of ring-open photoform
Assay type: in vivo, Danio rerio
Measurement Setup: direct application of 1 or ring-open photoform; zebrafish embryos at 3 dpf; 3 h incubation; final DMSO 0.2%; ambient light; value ± STD
Starred links: 1 amine or outer side, 2 acyl side, 3 side chain; linkers in the order of their positions; H or OH if unused. Positions of bridges follow the written chain, without caps; N, C: chain ends. Non-standard residues stand in square brackets, D forms with d. Residues, ends and D or L forms follow the SMILES beside them. *: point of attachment. X2 = Cc1sc(C(=O)[C@@H]2CCCN2[*:2])cc1C1=C(c2cc(C(=O)[*:1])sc2C)CCC1; X1 = CCCCN([C@@H](CC(C)C)C(=O)[*:2])[*:1]; Orn = NCCC[C@H](N)C(=O)O; NHiPr = CC(C)N*
Respond with the bare value in µg/mL.

CCCCN1C(=O)[C@@H](Cc2ccccc2)NC(=O)[C@H](CC(C)C)NC(=O)[C@H](CCCN)NC(=O)[C@H]([C@@H](C)CC)NC(=O)c2cc(c(C)s2)C2=C(CCC2)c2cc(sc2C)C(=O)[C@@H]2CCCN2C(=O)[C@H](CC(C)C)NC(=O)[C@H](CCCN)NC(=O)[C@H]([C@@H](C)CC)NC(=O)[C@@H]1CC(C)C [Peptide 11] (I[Orn]L[dF][X1]I[Orn]L; linker N-C via X2)    2.4
Cc1sc2cc1C1=C(CCC1)c1cc(sc1C)C(=O)[C@@H]1CCCN1C(=O)[C@H](C(C)C)NC(=O)[C@H](CCCN)NC(=O)[C@H](C(C)C)NC(=O)[C@@H]1CCCN1C(=O)[C@@H](Cc1ccccc1)NC(=O)[C@H](C(C)C)NC(=O)[C@H](CCCN)NC(=O)[C@H](CC(=O)NC(C)C)NC2=O [Peptide 7] (D(NHiPr)[Orn]V[dF]PV[Orn]V; linker N-C via X2)    8.7

// sample Cc1sc2cc1C1=C(CCC1)c1cc(sc1C)C(=O)[C@@H]1CCCN1C(=O)[C@H](C)NC(=O)[C@H](CCCN)NC(=O)[C@H](C(C)C)NC(=O)[C@@H]1CCCN1C(=O)[C@@H](Cc1ccccc1)NC(=O)[C@H](CC(C)C)NC(=O)[C@H](CCCN)NC(=O)[C@H](C(C)C)NC2=O [Peptide 3] , its LD50 (open)^3h was 4.8
